Cited source: paper PMC3950705

# assay-target: T1, hRev1 330-833 (core polymerase domain) (human, UniProt Q9UBZ9 330-833)
# T1 sequence: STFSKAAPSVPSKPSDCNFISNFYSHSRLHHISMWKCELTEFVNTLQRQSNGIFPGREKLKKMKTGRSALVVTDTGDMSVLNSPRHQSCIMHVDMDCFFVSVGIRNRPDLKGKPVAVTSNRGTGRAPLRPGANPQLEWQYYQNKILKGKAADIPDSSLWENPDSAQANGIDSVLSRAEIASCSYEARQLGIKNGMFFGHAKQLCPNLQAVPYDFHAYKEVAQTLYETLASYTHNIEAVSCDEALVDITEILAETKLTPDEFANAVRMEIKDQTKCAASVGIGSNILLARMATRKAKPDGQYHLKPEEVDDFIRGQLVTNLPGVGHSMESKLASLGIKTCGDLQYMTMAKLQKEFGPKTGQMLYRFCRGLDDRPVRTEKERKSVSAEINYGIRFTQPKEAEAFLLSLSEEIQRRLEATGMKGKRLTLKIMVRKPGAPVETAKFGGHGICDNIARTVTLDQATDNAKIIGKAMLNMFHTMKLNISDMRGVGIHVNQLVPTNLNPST
# assay-procedure: fluorescence polarization
measured-parameter: Kd (nM)
Hi! Could you send only the number? It should be in nM, unit omitted.

Prompt line: Return reported Kd; argument: TGGGTGGGTAGGGTGGGTAGGGGAGGAT (structured_DNA) [ss-G4 DNA 28-mer]
Response line: 15.7

Prompt line: Return reported Kd; argument: 11/28-mer primer-template non-G4 DNA (mixed) DNA 1: TATGTGACTATGCTGGGTAGGGGAGGAT DNA 2: ATCCTCCCCTA
Response line: 129

Prompt line: Return reported Kd; argument: 11/28-mer primer-template G4 DNA (mixed) DNA 1: TGGGTGGGTAGGGTGGGTAGGGGAGGAT DNA 2: ATCCTCCCCTA
Response line: 8.4

Prompt line: Return reported Kd; argument: TATGTGACTATGCTGGGTAGGGGAGGAT (ssDNA) [ss-non-G4 DNA 28-mer]
Response line: 65.7
